# TESTED_SYSTEM: recombinant 17bHSD13 (N2-K300) (Homo sapiens (Human), UniProt Q7Z5P4)
# Sequence (Q7Z5P4 2-300): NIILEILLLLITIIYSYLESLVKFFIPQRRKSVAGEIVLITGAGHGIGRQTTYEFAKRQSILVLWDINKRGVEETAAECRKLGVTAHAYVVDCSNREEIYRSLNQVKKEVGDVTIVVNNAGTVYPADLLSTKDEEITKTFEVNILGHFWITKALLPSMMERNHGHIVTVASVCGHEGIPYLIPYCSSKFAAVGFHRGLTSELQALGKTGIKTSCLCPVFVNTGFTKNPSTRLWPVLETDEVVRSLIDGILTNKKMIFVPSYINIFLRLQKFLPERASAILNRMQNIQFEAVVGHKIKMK
# PROTOCOL: In Vitro 17bHSD13 Enzyme Assay
# CONDITION_INFO: 80 nM 17bHSD13, 0.5 mM NAD, 20 μM Estradiol, 2.5 h; estradiol to estrone by LC-MS/MS
Documented IC50 across a set of compounds
READOUT: IC50 (nM)

# COMPOUND_STRING, TESTED_SYSTEM, UNIT_STRING, NUMERIC_VALUE
measured = [
    ("COc1ccccc1N1CCN(C(=O)c2noc(-c3cc(F)c(F)c(O)c3F)n2)CC1", "recombinant 17bHSD13 (N2-K300) (Homo sapiens (Human), UniProt Q7Z5P4)", "nM", 198),
    ("O=C(c1cc(-c2cc(F)c(F)c(O)c2F)on1)N1CC[C@H](c2ccc(Cl)cc2)C1", "recombinant 17bHSD13 (N2-K300) (Homo sapiens (Human), UniProt Q7Z5P4)", "nM", 47),
    ("O=C(c1noc(-c2cc(F)c(F)c(O)c2F)n1)N1CC(c2ccccc2)C1", "recombinant 17bHSD13 (N2-K300) (Homo sapiens (Human), UniProt Q7Z5P4)", "nM", 137),
    ("N#Cc1c(C(=O)N2CCC(O)(C(F)(F)F)CC2)noc1-c1cc(F)c(F)c(O)c1F", "recombinant 17bHSD13 (N2-K300) (Homo sapiens (Human), UniProt Q7Z5P4)", "nM", 278),
]

====

# TESTED_SYSTEM: over expressed HSD17β9 in HEK293S cells (Homo sapiens (Human), UniProt Q92781)
# Sequence (Q92781 whole entry): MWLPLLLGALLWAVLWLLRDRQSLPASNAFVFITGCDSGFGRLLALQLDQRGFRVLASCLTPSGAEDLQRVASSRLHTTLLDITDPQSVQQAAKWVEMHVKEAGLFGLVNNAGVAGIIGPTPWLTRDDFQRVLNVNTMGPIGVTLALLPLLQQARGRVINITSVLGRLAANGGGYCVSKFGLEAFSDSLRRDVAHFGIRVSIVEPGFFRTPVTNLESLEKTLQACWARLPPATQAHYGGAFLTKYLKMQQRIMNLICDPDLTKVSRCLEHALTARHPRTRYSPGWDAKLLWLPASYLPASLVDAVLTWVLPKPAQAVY
# PROTOCOL: In Vitro 17bHSD9 Cell Assay
# Assay type: cell-based
# CONDITION_INFO: HEK293S cells over expressing HSD17β9; retinol to retinal conversion, 18 h, LC-MS/MS; read-out: 17bHSD9 Cell assay IC50
pIC50: −log10 of the molar value.
Documented pIC50 across a set of molecules

# MOLECULE, QUALIFIER_SIGN, pIC50
data = [
    ("COc1ccc(OC2CCN(C(=O)c3noc(-c4cc(F)c(F)c(O)c4F)c3C#N)CC2)nc1 [Example 25]", "=", 4.64),
    ("O=C(c1noc(-c2cc(F)c(F)c(O)c2F)n1)N1CCO[C@H]2CCC[C@@H]21 [Example 115]", "=", 4.49),
    ("O=C(c1noc(-c2cc(F)c(F)c(O)c2F)n1)N1CCO[C@H](C(F)(F)F)C1 [Example 46]", "=", 5.11),
    ("COc1ccc(OC2CCN(C(=O)c3noc(-c4cc(F)c(F)c(O)c4F)n3)CC2)nc1 [Example 68]", "=", 4.52),
    ("O=C(c1noc(-c2cc(F)c(F)c(O)c2F)n1)N1CCCC(OCc2ccccc2)C1 (stereo not drawn) [Example 94]", "<", 4.30),
    ("O=C(c1noc(-c2cc(F)c(F)c(O)c2F)n1)N1CCN(c2ccccc2)CC1 [Example 81]", "<", 4.30),
    ("O=C(c1noc(-c2cc(C(F)(F)F)[nH]c(=O)c2)n1)N1CCC(c2ccccc2)C1 (stereo not drawn) [Example 9]", "=", 4.60),
    ("O=C(c1noc(-c2cc(F)c(F)c(O)c2F)n1)N1CC(Oc2ccccc2)C1 [Example 2]", "<", 4.30),
    ("O=C(c1noc(-c2cc(F)c(F)c(O)c2F)n1)N1CCO[C@@H]2CCC[C@@H]21 [Example 113]", "<", 4.30),
    ("COc1cccc(N2CCN(C(=O)c3noc(-c4cc(F)c(F)c(O)c4F)n3)CC2)c1 [Example 61]", "<", 4.30),
    ("COc1ccccc1C1CCN(C(=O)c2noc(-c3cc(F)c(F)c(O)c3F)n2)C1 (stereo not drawn) [Example 4]", "=", 4.89),
    ("N#Cc1ccc2c(c1)CN(C(=O)c1noc(-c3cc(F)c(F)c(O)c3F)n1)CC2 [Example 86]", "=", 4.68),
    ("C[C@@H]1CN(C(=O)c2noc(-c3c(F)c(O)c(F)c(F)c3Br)n2)C[C@H](C)O1 [Example 124]", "=", 4.62),
    ("O=C(c1noc(-c2cc(F)c(F)c(O)c2F)n1)N1CC[C@@H](Oc2ccccc2)C1 [Example 98]", "=", 4.40),
    ("C[C@@H]1CN(C(=O)c2noc(-c3cc(F)c(F)c(O)c3F)n2)C[C@H](C)O1 [Example 87]", "=", 4.44),
    ("CC[C@H]1CN(C(=O)c2noc(-c3cc(F)c(F)c(O)c3F)n2)CC(=O)N1 [Example 34]", "<", 4.30),
    ("O=C(c1noc(-c2cc(F)c(F)c(O)c2F)n1)N1CCOC2(CCOCC2)C1 [Example 53]", "<", 4.30),
    ("O=C(c1noc(-c2ccc(F)c(O)c2)n1)N1CC[C@H](c2ccccc2)C1 [Example 11]", "<", 4.30),
    ("C[C@@H]1CN(C(=O)c2noc(-c3cc(F)c(F)c(O)c3F)n2)[C@H](C)CO1 [Example 50]", "=", 4.40),
    ("C[C@@H]1CN(C(=O)c2ccc(-c3cc(F)c(F)c(O)c3F)s2)C[C@H](C)O1 [Example 3]", "<", 4.30),
    ("N#Cc1c(C(=O)N2CCN(c3nc4ccccc4o3)CC2)noc1-c1cc(F)c(F)c(O)c1F [Example 23]", "<", 4.30),
    ("CC(C)CC1CN(C(=O)c2noc(-c3cc(F)c(F)c(O)c3F)n2)CCO1 (stereo not drawn) [Example 47]", "=", 5.68),
    ("O=C(c1noc(-c2cc(F)c(F)c(O)c2F)n1)N1CC[C@H](c2ccc(Cl)cc2)C1 [Example 95]", "=", 4.77),
    ("C[C@@H]1CN(C(=O)c2nc(-c3cc(F)c(F)c(O)c3F)no2)C[C@H](C)O1 [Example 110]", "<", 4.30),
    ("CC(C)[C@H]1CN(C(=O)c2noc(-c3cc(F)c(F)c(O)c3F)n2)C[C@@H](C)O1 (racemic) [Example 122]", "=", 5.08),
    ("O=C(c1ccc(-c2cc(F)c(F)c(O)c2F)s1)N1CC[C@H](c2ccccc2)C1 [Example 33]", "<", 4.30),
    ("O=C(c1noc(-c2cc(F)c(F)c(O)c2F)n1)N1CC(c2ccc(F)cc2)C1 [Example 74]", "<", 4.30),
    ("CC(C)c1noc(C2=CCN(C(=O)c3noc(-c4cc(F)c(F)c(O)c4F)n3)CC2)n1 [Example 107]", "=", 5.30),
    ("C[C@@H]1CN(C(=O)c2noc(-c3cc(F)c(F)c(O)c3F)n2)C[C@@H](C)O1 [Example 88]", "=", 4.38),
    ("O=C(Nc1ccnn1C1CCCCC1)c1cc(-c2ccc(F)c(O)c2)on1 [Example 99]", "=", 4.41),
    ("O=C(c1noc(-c2cc(F)c(F)c(O)c2F)n1)N1CC2CCC(C1)C2(F)F [Example 43]", "=", 4.74),
    ("C[C@@H]1CC[C@H](C)N1C(=O)c1noc(-c2cc(F)c(F)c(O)c2F)n1 [Example 38]", "=", 5.06),
    ("C[C@H]1CN(C(=O)c2noc(-c3cc(F)c(F)c(O)c3F)n2)C[C@H](C)O1 [Example 54]", "<", 4.30),
]
